Origin of values: ChEMBL document CHEMBL5244269

assay_procedure: Aqueous solubility in pH 7.4 phosphate buffer
Assay type: physicochemical
readout_kind: solubility (µM)
Give bare numbers, in µM.

Query: # get_value(readout='solubility', item= Cc1ncc(-c2nc3c(OC4(C)CC4)nc(Nc4cnn(C5CCN(C)CC5)c4)nc3cc2F)cn1 )
Result: 800

###

target_under_test: Interleukin-1 receptor-associated kinase 4 (Homo sapiens, UniProt Q9NWZ3)
Sequence (Q9NWZ3 whole entry): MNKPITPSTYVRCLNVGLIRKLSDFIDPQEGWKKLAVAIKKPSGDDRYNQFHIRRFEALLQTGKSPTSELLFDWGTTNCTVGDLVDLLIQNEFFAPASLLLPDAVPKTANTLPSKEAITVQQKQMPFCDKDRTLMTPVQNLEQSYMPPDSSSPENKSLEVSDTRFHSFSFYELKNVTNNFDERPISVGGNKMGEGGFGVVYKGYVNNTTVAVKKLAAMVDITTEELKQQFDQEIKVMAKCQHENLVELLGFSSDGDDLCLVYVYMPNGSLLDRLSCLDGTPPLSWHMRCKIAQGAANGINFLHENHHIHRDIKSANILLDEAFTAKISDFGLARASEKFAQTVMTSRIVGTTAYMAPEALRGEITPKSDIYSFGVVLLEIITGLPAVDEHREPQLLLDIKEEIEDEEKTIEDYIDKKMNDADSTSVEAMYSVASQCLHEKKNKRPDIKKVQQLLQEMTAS
assay_procedure: Inhibition of IRAK4 (unknown origin) phosphorylation by cell based assay
Can you tell me IC50 for the items I'm about to list?
Answers are plain numbers, in nM.

[[record]]
structure_as_smiles = "Cn1cc(Nc2nc(N[C@@H]3CCOC3)c3nc(CC#N)ccc3n2)cn1"
readout_kind = "IC50"
measurement_unit = "nM"
assay_value = 3500

[[record]]
structure_as_smiles = "Cc1ncc(-c2nc3c(OC4(C)CC4)nc(Nc4cnn([C@@H]5C[C@@H]6C[C@H]5CN6C)c4)nc3cc2F)cn1"
readout_kind = "IC50"
measurement_unit = "nM"
assay_value = 310

[[record]]
structure_as_smiles = "Cc1ncncc1-c1nc2c(OC3(C)CC3)nc(Nc3cnn(C4CCN(C)CC4)c3)nc2cc1F"
readout_kind = "IC50"
measurement_unit = "nM"
assay_value = 480

[[record]]
structure_as_smiles = "CC(=O)N1CCC(n2cc(Nc3nc(OC4CCOCC4)c4nc(C)ccc4n3)cn2)CC1"
readout_kind = "IC50"
measurement_unit = "nM"
assay_value = 71


Please look at the items below and tell me IC50 for each one, in order.
1. Cc1ncc(-c2ccc3nc(Nc4cnn(C5CCN(C)CC5)c4)nc(OC4(C)CC4)c3n2)cn1
2. Cc1ncc(-c2nc3c(NC(C)C)nc(Nc4cnn(C5CC6(C5)CN(C)C6)c4)nc3cc2F)cn1

Result:
1: 140; 2: 210

Query: # get_value(readout='IC50', item= CC(=O)N1CCC(n2cc(Nc3nc(OC4CCOCC4)c4nc(CC#N)ccc4n3)cn2)CC1 )
Result: 2000

###

assay_procedure: Metabolic stability in human liver microsomes assessed as intrinsic clearance
Format: ADME, Microsome
condition_context: read-out: CLH
Can you tell me microsomal CLint for the items I'm about to list?
Give bare numbers, in µL/min/mg.

Please review the following examples before continuing.
[[record]]
structure_as_smiles = "CN1CCC(n2cc(Nc3nc(OC4(C)CC4)c4nc(-c5ccn(C)n5)ccc4n3)cn2)CC1"
readout_kind = "microsomal CLint"
measurement_unit = "µL/min/mg"
assay_value = 18

[[record]]
structure_as_smiles = "Cc1ncc(-c2nc3c(OC4(C)CC4)nc(Nc4cnn([C@@H]5C[C@H]6C[C@@H]5CN6C)c4)nc3cc2F)cn1"
readout_kind = "microsomal CLint"
measurement_unit = "µL/min/mg"
assay_value = 14


Please examine the following record next.
Query: # get_value(readout='microsomal CLint', item= CN1CCC(n2cc(Nc3nc(OC4(C)CC4)c4nc(-c5cn(C)nn5)ccc4n3)cn2)CC1 )
Result: 13

###

target_under_test: Interleukin-1 receptor-associated kinase 4 (Homo sapiens, UniProt Q9NWZ3)
Sequence (Q9NWZ3 whole entry): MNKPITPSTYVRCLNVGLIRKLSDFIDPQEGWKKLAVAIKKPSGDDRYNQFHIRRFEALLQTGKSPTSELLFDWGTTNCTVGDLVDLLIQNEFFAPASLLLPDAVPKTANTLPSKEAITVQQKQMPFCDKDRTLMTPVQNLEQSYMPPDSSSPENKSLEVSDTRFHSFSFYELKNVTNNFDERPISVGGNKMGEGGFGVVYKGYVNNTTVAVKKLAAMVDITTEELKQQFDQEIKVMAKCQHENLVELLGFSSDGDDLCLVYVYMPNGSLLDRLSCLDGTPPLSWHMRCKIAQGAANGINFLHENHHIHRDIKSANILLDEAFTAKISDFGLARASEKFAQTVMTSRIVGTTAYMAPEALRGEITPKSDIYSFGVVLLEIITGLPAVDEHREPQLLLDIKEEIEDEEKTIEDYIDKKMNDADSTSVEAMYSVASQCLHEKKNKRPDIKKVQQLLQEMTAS
assay_procedure: Inhibition of IRAK4 (unknown origin) in presence of ATP by enzymatic assay
Classify: Satisfied when IC50 is strictly less than 3 nM; Not satisfied when IC50 is not.

Below, 2 compounds whose answers are already recorded.
[[record]]
structure_as_smiles = "Cc1ncncc1-c1nc2c(OC3(C)CC3)nc(Nc3cnn(C4CCN(C)CC4)c3)nc2cc1F"
assigned_label = "Not satisfied"

[[record]]
structure_as_smiles = "Cc1ncc(-c2nc3c(NC(C)C)nc(Nc4cnn(C5CC6(C5)CN(C)C6)c4)nc3cc2F)cn1"
assigned_label = "Satisfied"


Query: Given the entry CC(=O)N1CCC(n2cc(Nc3nc(OC4CCOCC4)c4nc(CC#N)ccc4n3)cn2)CC1 , would its reported IC50 be below 3 nM?
Result: Not satisfied

Query: Given the entry Cn1cc(Nc2nc(NC3CCOCC3)c3nc(CC#N)ccc3n2)cn1 , would its reported IC50 be below 3 nM?
Result: Not satisfied

Query: Given the entry Cc1ncc(-c2ccc3nc(Nc4cnn(C5CCN(C)CC5)c4)nc(OC4(C)CC4)c3n2)c(C)n1 , would its reported IC50 be below 3 nM?
Result: Not satisfied

###

assay_procedure: Metabolic stability in human liver microsomes assessed as intrinsic clearance
Type: ADME, Microsome
condition_context: read-out: CLH
readout_kind: microsomal CLint (µL/min/mg)
Answers are plain numbers, in µL/min/mg.

Please review the following examples before continuing.
[[record]]
structure_as_smiles = "CN1CCC(n2cc(Nc3nc(OC4(C)CC4)c4nc(-c5cncnc5)ccc4n3)cn2)CC1"
assay_value = 96

[[record]]
structure_as_smiles = "Cc1ncc(-c2nc3c(OC4(C)CC4)nc(Nc4cnn(C5CCN(C)CC5)c4)nc3cc2F)cn1"
assay_value = 58

[[record]]
structure_as_smiles = "Cc1ncc(-c2ccc3nc(Nc4cnn(C5CCN(C)CC5)c4)nc(OC4(C)CC4)c3n2)c(C)n1"
assay_value = 23

[[record]]
structure_as_smiles = "Cc1ncc(-c2nc3c(NC4(C)CC4)nc(Nc4cnn(C5CC6(C5)CN(C)C6)c4)nc3cc2F)cn1"
assay_value = 11


Please look at the items below and tell me microsomal CLint for each one, in order.
1. N#CCc1ccc2nc(Nc3cnn(C4CCOCC4)c3)nc(NC3CCOCC3)c2n1
2. CN1CCC(n2cc(Nc3nc(OC4(C)CC4)c4nc(-c5cn(C)cn5)ccc4n3)cn2)CC1

Result:
[110, 14]

Please look at the items below and tell me microsomal CLint for each one, in order.
1. CN1CCC(n2cc(Nc3nc(OC4(C)CC4)c4nc(-c5cnn(C)c5)ccc4n3)cn2)CC1
2. CN1CCC(n2cc(Nc3nc(OC4(C)CC4)c4nc(-c5ccnnc5)ccc4n3)cn2)CC1

Result:
15
48

###

assay_procedure: Oral bioavailability in CD1 mouse at 1 mg/kg
Type: ADME, organism-based
condition_context: in vivo
readout_kind: bioavailability (%)
Give bare numbers, in %.

Query: # get_value(readout='bioavailability', item= Cc1ncc(-c2nc3c(OC4(C)CC4)nc(Nc4cnn(C5CCN(C)CC5)c4)nc3cc2F)cn1 )
Result: 66

###

assay_procedure: Efflux ratio of apparent permeability basolateral to apical side over apical to basolateral side in human Caco-2 cells measured for 360 mins by liquid scintillation counting based analysis
Type: ADME, cell-based
Response key: True means efflux ratio at 6 h >= 20; False means efflux ratio at 6 h < 20.

Below, 3 molecules whose answers are already recorded.
[[record]]
structure_as_smiles = "COC(=O)N1CCN([C@H]2CC[C@H](Nc3nc(Nc4cnn(C)c4)nc4ccc(CC#N)nc34)CC2)CC1"
assigned_label = "True"

[[record]]
structure_as_smiles = "Cc1ncc(-c2nc3c(NC(C)C)nc(Nc4cnn(C5CC6(C5)CN(C)C6)c4)nc3cc2F)cn1"
assigned_label = "False"

[[record]]
structure_as_smiles = "Cc1ccc2nc(Nc3cnn(C4CCN(C)CC4)c3)nc(OC3(C)CC3)c2n1"
assigned_label = "False"


Query: Threshold query (efflux ratio at 6 h >= 20) on Cc1ncc(-c2nc3c(OC4(C)CC4)nc(Nc4cnn(C5CCN(C)CC5)c4)nc3cc2F)cn1
Result: False

Query: Threshold query (efflux ratio at 6 h >= 20) on CC(=O)N1CCC(n2cc(Nc3nc(NC4CCOCC4)c4nc(CC#N)ccc4n3)cn2)CC1
Result: True

Query: Threshold query (efflux ratio at 6 h >= 20) on CN1CCC(n2cc(Nc3nc(OC4(C)CC4)c4nc(C(=O)N(C)C)ccc4n3)cn2)CC1
Result: False

Query: Threshold query (efflux ratio at 6 h >= 20) on CC(=O)N1CCC(n2cc(Nc3nc(OC4CCOCC4)c4nc(C)ccc4n3)cn2)CC1
Result: False
